B1: CPEB3 Ribozyme (parent)
chain: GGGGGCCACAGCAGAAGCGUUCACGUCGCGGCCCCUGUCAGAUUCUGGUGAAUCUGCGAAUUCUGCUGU

Variants of: B1
assay.procedure: self-cleavage, relative activity (ratio to wild type); higher = more cleavage; co-transcriptional
assay.readout: self-cleavage
One number for each entry.

Worked examples follow.
[[record]]
variant_descriptor = "G3C A15U"
quantitative_result = 0.0699

[[record]]
variant_descriptor = "A60G U69A"
quantitative_result = 0.994

[[record]]
variant_descriptor = "G5C A15G"
quantitative_result = 0.3

[[record]]
variant_descriptor = "C12U G41C"
quantitative_result = 0.617

[[record]]
variant_descriptor = "C24G C39A"
quantitative_result = 0.214


For every item below, please supply its self-cleavage.
1. C29G G37C
2. G30C G50A

Given back:
[0.169, 0.621]

Origin of measurements: the RNAGym collection of RNA variant scans (doi:10.7554/elife.80360)
